Tested on: A549 lung adenocarcinoma cells
PROTOCOL NOTES: Anti-senescent cytotoxicity, senescent vs proliferating A549
Assay type: cell-based, Human
CONDITIONS USED: Homo sapiens; A549 proliferating; read-out: Activity against Proliferating Cells (IC50; uM)
REPORTED METRIC: IC50

input: State, in one line, measured IC50 of CCOC(=O)c1sc(SCc2ccccc2)c2c1CC(c1ccc(OC)cc1)C/C2=N\O (stereo not shown) [Example A1.1]
output: 16.5 µM

###

System: adult rat dermal fibroblasts (RDF)
PROTOCOL NOTES: Resazurin viability assay, senescent vs proliferating rat dermal fibroblasts
Type: cell-based
CONDITIONS USED: Rattus norvegicus, Fibroblast; proliferating RDF; 72 hour exposure; resazurin; read-out: IC50 RDFprolif
REPORTED METRIC: IC50

Guide cases for IC50, answers given:
Nc1nc(CCCc2ccccc2)c2c(n1)CC(c1ccccc1)C/C2=N\O (centres unmarked) :: > 20 µM
CCNC(=O)c1sc(SCc2ccccc2)c2c1CC(c1ccc(OC)cc1)C/C2=N\O (centres unmarked) :: < 10 µM
COc1ccc(C2CC(=NO)c3c(SCc4ccccc4)sc(C(=O)NCc4cccc(F)c4)c3C2)cc1 (centres unmarked) :: > 20 µM
CCOC(=O)c1sc(SCc2ccccc2)c2c1C(c1ccc(OC)cc1)CC/C2=N\O (centres unmarked) :: > 20 µM
CCOC(=O)c1sc(SCc2ccccc2)c2c1CC(c1ccc(OC)cc1)C/C2=N\O (centres unmarked) :: > 20 µM
COc1ccc(C2C/C(=N\O)c3c(SCc4ccccc4)sc(C(=O)NCc4ccco4)c3C2)cc1 (centres unmarked) :: > 20 µM

input: State, in one line, measured IC50 of N#Cc1cc2c(nc1SCc1ccccc1)CC(c1ccccc1)C/C2=N\O (centres unmarked)
output: > 20 µM

input: State, in one line, measured IC50 of CCOC(=O)c1sc(SCc2ccccc2)c2c1CC(c1ccc(F)cc1)CC2=NO (centres unmarked)
output: > 5 µM

###

In this section we review reported IC50 values for a set of compounds.
System: adult rat dermal fibroblasts (RDF)
PROTOCOL NOTES: Resazurin viability assay, senescent vs proliferating rat dermal fibroblasts
Format: cell-based
CONDITIONS USED: Rattus norvegicus, Fibroblast, light or radiation study; senescent RDF, irradiation-induced; 72 hour exposure; resazurin; read-out: IC50 RDFsen.irr

Guide cases for IC50, answers given:
CCOC(=O)c1sc(SCc2ccccc2)c2c1CC(c1ccc(F)cc1)CC2=NO (stereo not shown) [Example A1.7] :: < 2.5 µM
CCOC(=O)c1sc(SCc2ccccc2)c2c1CC(c1ccc(OC)cc1)C/C2=N\O (stereo not shown) [Example A1.1] :: < 5 µM
COc1ccc(C2C/C(=N\O)c3c(SCc4ccccc4)sc(C(=O)NCc4ccccc4)c3C2)cc1 (stereo not shown) [Example A1.14] :: < 2.5 µM
O=C(Nc1ccccc1)c1cc2c(nc1NCCOc1ccccc1)CC(c1ccccc1)C/C2=N\O (stereo not shown) [Example A3.1] :: < 2.5 µM
COc1ccc(C2C/C(=N\O)c3sc(NC(=O)COc4ccc(C)cc4)nc3C2)cc1 (stereo not shown) [Example A4.1] :: < 5 µM

input: State, in one line, measured IC50 of O/N=C1\CC(c2ccccc2)Cc2nc(NCCOc3ccccc3)ncc21 (stereo not shown) [Example A2.2]
output: < 2.5 µM

input: State, in one line, measured IC50 of N#Cc1cc2c(nc1SCc1ccccc1)CC(c1ccccc1)C/C2=N\O (stereo not shown) [Example A3.2]
output: < 2.5 µM

input: State, in one line, measured IC50 of CCOC(=O)c1sc(SCc2ccccc2)c2c1C(c1ccc(OC)cc1)CC/C2=N\O (stereo not shown) [Example A1.9]
output: < 20 µM
